# Measured target: T1, soluble KDR extracellular domain (ECD) (Calbiochem) (human, UniProt P35968 20-764)
# T1 construct: extracellular domain; Bought protein; also called KDR-ECD; VEGF Receptor 2 D1-7, Cat. #676490
# T1 sequence (P35968 20-764): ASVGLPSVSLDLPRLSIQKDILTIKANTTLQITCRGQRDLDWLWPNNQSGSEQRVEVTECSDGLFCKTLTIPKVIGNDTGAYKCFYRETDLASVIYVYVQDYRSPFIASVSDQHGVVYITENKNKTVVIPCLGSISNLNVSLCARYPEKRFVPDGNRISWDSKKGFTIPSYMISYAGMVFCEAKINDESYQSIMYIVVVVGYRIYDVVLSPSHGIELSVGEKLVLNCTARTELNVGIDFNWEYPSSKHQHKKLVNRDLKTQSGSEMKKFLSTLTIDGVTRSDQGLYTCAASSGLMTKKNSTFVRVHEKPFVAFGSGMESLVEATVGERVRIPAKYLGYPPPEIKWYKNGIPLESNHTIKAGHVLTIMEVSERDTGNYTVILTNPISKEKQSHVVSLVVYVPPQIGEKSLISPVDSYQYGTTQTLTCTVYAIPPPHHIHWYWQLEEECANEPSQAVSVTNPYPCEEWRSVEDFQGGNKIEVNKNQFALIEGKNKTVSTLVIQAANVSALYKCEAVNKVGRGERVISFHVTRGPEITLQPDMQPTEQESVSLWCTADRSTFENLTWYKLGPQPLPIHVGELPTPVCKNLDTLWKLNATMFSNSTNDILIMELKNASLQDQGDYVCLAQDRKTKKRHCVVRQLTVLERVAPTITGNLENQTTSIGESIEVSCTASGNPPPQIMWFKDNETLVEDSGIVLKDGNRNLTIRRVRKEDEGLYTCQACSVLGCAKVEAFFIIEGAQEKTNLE
# Test name: High Antigen ELISA, KDR coat 500 ng/mL, supernatant 1:75
# Method: ELISA plates were coated with a greater amount of KDR (at 500 ng/mL) in comparison with the Limited Antigen Quantitation assay described below. Sample containing antibody (Ab) was titrated on the KDR-coated ELISA plates and was incubated overnight at 4° C. to allow Ab binding to approach equilibrium. […] The high KDR concentration and the overnight incubation limited the effect of Ab affinity, allowing quantitation of the relative amount of KDR-specific Ab present in each sample.
Value kind: ELISA reading
Give your answer as a number; write no unit.

The following binders have reported results that may help.
Binder	Number
31E11 (antibody, V domains shown, Fully human mAb from XenoMouse hybridoma, tested as hybridoma supernatant) VH: QVQLVESGGGLVKPGGSLRLSCAASGFTFSDYYMSWIRQAPGKGLEWVSYISISGSTIYYADSVKGRFTISRDNAKNSLYLQMNSLRAEDTAVYYCARDDFWSGYYFNWFDPWGQGTLVTVSS VL: DIQMTQSPSSLSASVGDRVTITCRANQTISTFLNWYQQNPGKAPKLLIYAASSLQSGVPSRFSGSGSGTDFTLTISSLQPEDFATYYCQQTYIIPLTFGGGTKVEIK	6
33E1 (antibody, V domains shown, Fully human mAb from XenoMouse hybridoma, tested as hybridoma supernatant) VH: QVQLQESGPGLVKPSQTLSLTCTVSGGSISSGDHYWSWIRQHPGKGLEWIGHIYYSGSTDYNPSLKSRVTISVDTSKNHFSLKLNSVTAADTAVYYCARTNSSSWSDWYFDLWGRGTLVTVSS VL: DIVMTQSPDSLAVSLGERATINCKSSQSILYSSNNKNYLAWYQRKPGQPPILLIHWASTRESGVPDRFSGSGSRTDFTLTISSLQAEDVAVYYCQQYFITPWTFGQGTKVEIK	4.24
30A1 (antibody, V domains shown, Fully human mAb from XenoMouse hybridoma, tested as hybridoma supernatant) VH: QLQLQESGPGLVKPSETLSLTCTVSGGSISSPNYYWGWIRQPPGKGLEWIGTIYYSGNTFYNPSLKSRVTISVDTSKNQFSLKLSSVTAADTAVYYCATQQLVLYYFDFWGQGTLVTVSS VL: EIVLTQSPGTLSLSPGKRAALSCRASQSISSSYLAWYQQKPGQAPRLLIYGASSRATGIPDRFNGSGSGTDFTLTISRLEPEDFAVYYCQQLGSSITFGQGTRLEIK	4.78
24B3 (antibody, V domains shown, Fully human mAb from XenoMouse hybridoma, tested as hybridoma supernatant) VH: EVQLVESGGGLVKPGGSLRLSCAASGFTFSTYSMNWVRQAPGKGLEWVSFISGRSSYIYYADSVKGRFTISRDNAKNSLYLQMNSLRAEDTAVYYCSKDDWFEELWGQGTLVTVSS VL: DIQMTQSPSSLSASVGDRVTITCRASQGIRSDLGWYQQKPGKAPKRLIYATSSLQSGVPSRFSGSGSGTEFTLTISSLQPEDFATYYCLQHNRYPWTFGQGTKVEIK	1.58

Turning now to a further binder:
The recorded ELISA reading for 32F4 (antibody, V domains shown, Fully human mAb from XenoMouse hybridoma, tested as hybridoma supernatant) VH: QLQLQESGPGLVKPSGTLSLSCTVSGGSISSRSDYWGWIRQPPGKGLEWIGTIYYSGNTFYNPSLKSRVTISVDTSKKQFSLKLSSVTAADTAVYYCARQQLVLYYFDYWGQGTLVTVSS VL: EIVLTQSPGTLSLSPGERATLSCRTSQSVSSSYLAWYQQKPGQAPRLLIYGASSRATGVPDRFSGSGSGTDFSLTISRLEPEDFAVYYCQQYGSSPPLTFGGGTKVEIK is 5.56
